system: HT-29; assay: Antiproliferative activity against human HT-29 cells assessed as reduction in cell viability by MTT assay; assay type: functional, cell-based
experimental endpoint: IC50 (µM)
Please state the figure in µM; there is no need to write the unit.

[[record]]
compound_structure_string = "CC(C)Nc1nc(Nc2ccc(S(N)(=O)=O)cc2)ncc1/N=C/c1ccccc1"
target_entity = "HT-29"
experimental_endpoint = "IC50"
reported = 98.2

[[record]]
compound_structure_string = "NS(=O)(=O)c1ccc(Nc2ncc(/N=C/c3ccccc3)c(NC3CCCC3)n2)cc1"
target_entity = "HT-29"
experimental_endpoint = "IC50"
reported = 27

[[record]]
compound_structure_string = "CCOC(=O)/C=N/c1cnc(Nc2ccc(N3CCOCC3)cc2)nc1NC1CCCC1"
target_entity = "HT-29"
experimental_endpoint = "IC50"
reported = 5.57

[[record]]
compound_structure_string = "CCOC(=O)/C=N/c1cnc(Nc2ccc(S(N)(=O)=O)cc2)nc1NC1CCCC1"
target_entity = "HT-29"
experimental_endpoint = "IC50"
reported = 23.6

[[record]]
compound_structure_string = "CN1CCN(c2ccc(Nc3ncc(/N=C/c4ccc(C(F)(F)F)cc4)c(NC4CCCC4)n3)cc2)CC1"
target_entity = "HT-29"
experimental_endpoint = "IC50"
reported = 80.7

[[record]]
compound_structure_string = "CN1CCN(c2ccc(Nc3ncc(/N=C/c4cccs4)c(NC4CCCC4)n3)cc2)CC1"
target_entity = "HT-29"
experimental_endpoint = "IC50"
reported = 21.7


Continue with the next compound.
Prompt: I have this compound here, "CCOC(=O)/C=N/c1cnc(Nc2ccc(N3CCOCC3)cc2)nc1NC(C)C" , and I need its recorded IC50.
Response: 19.6
